assay: Log P by HPLC on reversed phase columns, method [a] (EEC directive 79/831 Annex V.A8); type: physicochemical; conditions: reversed phase HPLC column; log P determined according to method [a] (HPLC on reversed phase columns); read-out: logP
Please enter 1 where chromatographic logP is greater than or equal to 3, and 0 where it is lower.

1) COc1ccccc1Cc1ncc(-c2nnc(C(F)F)o2)cn1 [I.107] | 0
2) Fc1ccccc1Nc1ncc(-c2nnc(C(F)F)s2)cn1 [I.113] | 0
3) Fc1cccc(F)c1C1(Oc2ncc(-c3nnc(C(F)F)o3)cn2)CC1 [I.167] | 1
4) C[C@H](Nc1ncc(-c2nnc(C(F)F)o2)cn1)c1ccc(F)cc1 [I.125b] | 0
5) CCON(Cc1ccccc1)c1ncc(-c2nnc(C(F)F)o2)cn1 [I.148] | 1
6) FC(F)c1nnc(-c2cnc(NC3(c4ccccn4)CC3)nc2)o1 [I.121] | 0
7) Fc1ccccc1C1(Nc2ncc(-c3nnc(C(F)F)o3)cn2)CC1 [I.144] | 0

Input: Does chromatographic logP meet or surpass 3 for FC(F)c1nnc(-c2cnc(NC3(c4ccccc4)CCCC3)nc2)o1 [I.153] ?
Output: 1

---

assay: Log P by HPLC on reversed phase columns, method [a] (EEC directive 79/831 Annex V.A8); type: physicochemical; details: reversed phase HPLC column; method [a], HPLC on reversed phase columns; read-out: logP
result.type: chromatographic logP
Numbers only.

Example cases with answers are listed next.
1) COc1cccc(C2(Nc3ncc(-c4nnc(C(F)F)o4)cn3)CC2)c1F | 2.81
2) FC(F)c1nnc(-c2cnc(NC3CCCC3c3ccccc3)nc2)o1 (racemic) | 3.44
3) C#CCN(c1ncc(-c2nnc(C(F)F)o2)cn1)C1(c2ccccc2F)CC1 | 4.09
4) CC(Nc1ncc(-c2nnc(C(F)F)o2)cn1)c1ccc2ccccc2n1 (racemic) | 2.04
5) CC(CNc1ncc(-c2nnc(C(F)F)o2)cn1)c1ccc(F)cc1 (racemic) | 3.13

Would you mind giving chromatographic logP for every molecule in the list below?
1. FC(F)c1nnc(-c2cnc(NC3(c4ccccc4Cl)CCC3)nc2)o1
2. FC(F)c1nnc(-c2cnc(NC3(c4ccc(Cl)cc4)CCCCC3)nc2)o1
3. CC(Nc1ncc(-c2nnc(C(F)F)o2)cn1)c1cscn1 (racemic)

Output:
3.81
4.4
1.8

---

I'd appreciate it if you could supply chromatographic logP values for the items below.
experiment: Log P by HPLC on reversed phase columns, method [a] (EEC directive 79/831 Annex V.A8); format: physicochemical; conditions: reversed phase HPLC column; log P determined according to method [a] (HPLC on reversed phase columns); read-out: logP
Numbers only.

Reference set (4 entries):
1. CON(Cc1ccc(Cl)cc1)c1ncc(-c2nnc(C(F)F)o2)cn1 [I.169] | 3.31
2. Fc1cccc(F)c1CNc1ncc(-c2nnc(C(F)F)o2)cn1 [I.129] | 2.67
3. CCCC(Nc1ncc(-c2nnc(C(F)F)o2)cn1)c1ccccc1 (racemic) [I.140] | 3.54
4. CON(c1ncc(-c2nnc(C(F)F)o2)cn1)C(C)c1ccccc1 (racemic) [I.147] | 3.37

Go through the items and report each one's chromatographic logP.
1. Fc1ccccc1C1(Nc2ncc(-c3nnc(C(F)(F)F)o3)cn2)CC1 [I.165]
2. FC(F)c1nnc(-c2cnc(OC3(c4ccccc4)CC3)nc2)o1 [I.120]

Output:
1: 3.47; 2: 2.95

Please report chromatographic logP for every entry that follows.
1. CCOC(=O)C1(Nc2ncc(-c3nnc(C(F)F)o3)cn2)CC1 [I.117]
2. Fc1ccccc1Nc1ncc(-c2nnc(C(F)(F)F)o2)cn1 [I.116]
3. Fc1ccccc1Nc1ncc(-c2nnc(C(F)(F)F)s2)cn1 [I.130]

Output:
1. 1.94
2. 2.99
3. 3.3

Input: Give the measured chromatographic logP of N#CC(Nc1ncc(-c2nnc(C(F)F)o2)cn1)c1ccc(F)cc1 (racemic) [I.141] .
Output: 2.65

From: patent US20220144815A1
